- TGT: T1, Activin B (UniProt P09529 293-407)
- T1 sequence (looked up): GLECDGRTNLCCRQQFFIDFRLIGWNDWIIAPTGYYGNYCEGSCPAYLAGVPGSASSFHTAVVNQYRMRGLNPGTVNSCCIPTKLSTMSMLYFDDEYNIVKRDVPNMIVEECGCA
- MEASUREMENT_NOTES: cell-based or functional assay
QUANTITY: Activin B-ActRIIB SMAD IC50 pM (pM)
# number only, unit pM dropped from output

response.value for anti-Activin A antibody Clone K (IgG) (antibody, V domains shown, IgG format; also called Antibody K) VH: QVQLVQSGAEVKKPGSSVKVSCKASGGTSSSYAISWVRQAPGQGLEWMGYIIPAFGTANYAQKFQGRVTITADESTSTAYMELSSLRSEDTAVYYCARPVRTYPLGKYFYHWGQGTLVTVSS VL: EIVLTQSPATLSLSPGERATLSCRASQSVSSYLAWYQQKPGQAPRLLIYDASNRATGIPARFSGSGSGTDFTLTISSLEPEDFAVYYCQQDSIFPPYTFGGGTKVEIKR (field: Activin B-ActRIIB SMAD IC50 pM) = 30700
